- Test system: PC-3
- assay-procedure: NCI tumour cell line growth inhibition, 48 h
Active and inactive are the calls of the source. Rule as the data show it: active = GI50 up to about 1.1 µM and inactive = higher. Residues, ends and D or L forms follow the SMILES beside them. *: point of attachment. Fmoc = O=C(OCC1c2ccccc2-c2ccccc21)*; Boc = CC(C)(C)OC(=O)*
The reply should name one outcome from Y for active, N for inactive

Example results:
# compound, category-label
rows = [
    ("COC(CN(C=O)[C@@H](c1ccc(Cl)cc1)c1cc2ccccc2o1)OC", "N"),
    ("O=C(N[C@@H](Cc1ccccc1)B(O)O)[C@H](Cc1cccc2ccccc12)NC(=O)N1CCOCC1", "Y"),
    ("CNC1C(OC2C(OC3C(O)C(O)C(O)C(O)C3O)OC(C)C2(O)CO)OC(CO)C(O)C1O.N=C(N)N.NC(=O)O (centres undefined)", "N"),
    ("Cc1ccccc1/N=C/N(C)C", "N"),
    ("CC(C)(C)OC(=O)NCCCCC(NC(=O)C(Cc1c[nH]c2ccccc12)NC(=O)OCC1c2ccccc2-c2ccccc21)C(=O)N1CCCC1C(=O)NCC(N)=O (centres undefined) (Fmoc-WK(Boc)PG-NH2; configuration not given here)", "N"),
    ("COC(=O)/C=C\\C(C#N)(C#N)/N=C/c1cc(Br)cs1", "N"),
]

How did this test come out for "O=C(O)c1cc2ccccc2c(/N=N/c2ccc(S(=O)(=O)Nc3ncccn3)cc2)c1O" ?
N

How did this test come out for c1ccc(C(=NCCC2CNc3ccccc32)c2ccccc2)cc1 (centres undefined) ?
N

How did this test come out for "CC1(C)CN=C(c2ccc3ccccc3c2O)N1" ?
N

How did this test come out for "Cn1c(=O)c(-c2ccccc2)c(O)c2ccccc21" ?
N

How did this test come out for "Cc1ccc(C2=CC(=O)/C(=C\C(=O)c3ccc(Cl)cc3)O2)cc1" ?
N

How did this test come out for "O=c1/c(=C/c2ccc(-c3ccc(Cl)cc3Cl)o2)sc2n1[C@@H](c1ccc3c(c1)OCO3)C=C(c1cc(F)c(Cl)cc1Cl)N=2" ?
N

How did this test come out for "COC(=O)/C(=C(\C)NC(C)=O)c1c(C(=O)OC)[nH]c2ccccc12" ?
N

How did this test come out for "C=CCOC(=O)c1c(C)[n+]([O-])c2cc(Cl)c(Cl)cc2[n+]1[O-]" ?
N

How did this test come out for COc1cc(C2c3cc4c(cc3OC(C)(O)C2C)OCO4)cc(OC)c1OC (centres undefined) ?
Y

###

- System: A498
- assay-procedure: NCI tumour cell line growth inhibition, 48 h
Activity calls are given as the source filed them. Rule as the data show it: active = GI50 up to about 1.1 µM and inactive = higher.
# GI50 annotations

# count of solved cases: 8
# compound, GI50
measured = [
    ("CN(C)CC1CCCCCCCCCC(CN(C)C)C1=O (stereo unspecified)", "> 28.4 µM (inactive)"),
    ("O=C1NC2(CCCCC2)C(=O)N1CCN(CCCl)CCCl", "> 250 µM (inactive)"),
    ("C=C1C(=O)OC2CC3(C)C=CC(=O)C(=C)C3CC12 (stereo unspecified)", "7.46 µM (inactive)"),
    ("FC1=C2C3CCC(C3)C2C1(F)F (stereo unspecified)", "> 100 µM (inactive)"),
    ("CC1CCC2c3c([nH]c4ccccc34)C3C(=O)N(C4CCCCC4)C(=O)C3C2C1 (stereo unspecified)", "22 µM (inactive)"),
    ("CC1CCC2(OC1)OC1CC3C4CCC5CC(O)CCC5(C)C4CC(=O)OC3(C)C1C2C (stereo unspecified)", "> 100 µM (inactive)"),
    ("CCC12CC(c3ccccc3)C(C(=O)N1)C(=O)N2 (stereo unspecified)", "> 100 µM (inactive)"),
    ("c1ccc(-c2cc(-c3cc(-c4ccccn4)[nH]n3)n[nH]2)nc1", "> 100 µM (inactive)"),
]

Tell me its GI50 on A498: "CN(C)c1nc(NN)c2c(-c3ccccc3)c(-c3ccccc3)oc2n1"
> 100 µM (inactive)

Tell me its GI50 on A498: "CCN(C)c1nc(N(C)CC)c2nc(N(C)CC)nc(N(C)CC)c2n1"
> 100 µM (inactive)

Tell me its GI50 on A498: "CCOC(=O)/C=C/CCO[Si](C)(C)C(C)(C)C"
> 100 µM (inactive)

Data credit: ChEMBL document CHEMBL1201862
